Measured target: T1, P2-AA-1HAA-D
T1 chain: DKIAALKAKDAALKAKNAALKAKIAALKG
Experiment description: two-hybrid library CCmax;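 also: natural log of median RNA to DNA barcode read ratio; higher means stronger binding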
Experimental context: mean of both orientations
Measured endpoint: interaction score

DEIAALEAEVAALEAENAALEAEIAALEG [P1-AA-1HAA-V]    1.95

P: DEIAALEAEAAALEAENAALEAEIAALEG [P1-AA-1HAA-A]
Q: DEIAALEAERAALEAENAALEAEIAALEG [P1-AA-1HAA-R]
**Q:** Of P and Q , which one carries the higher reported interaction score? Please identify the chosen entry by its label.
**A:** P
(P: 1.87, Q: 0.454)

Values were extracted from paper PMC10397247.
